EXPERIMENT_DESCRIPTION: binders of r(CAG) RNA repeats, primary screen, biochemical, fluorescence (AID 651821);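 note: higher means more dye released from RNA so lower well fluorescence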
EXPERIMENTAL_PARAMETERS: r(CAG) RNA repeat, TO-PRO-1 dye displacement fluorescence; at 3 µM
The campaign covered roughly 370,000 compounds. About 4,700 (1.3%) were called active.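 Rule for the calls: active = inhibition above the plate cutoff, the mean of all test compounds on that plate plus 3 SD (cut at about 35% in these data); inactive = the rest.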 Shown is part of a subset that was picked to be rich in actives.
Assign a class; possible classes are active, inactive

Recorded results for 4 compounds are shown here.
COMPOUND: CSc1ccc(/C=N/N2CCN(Cc3ccccc3Cl)CC2)cc1
CLASS_ASSIGNMENT: inactive

COMPOUND: O=c1c(-c2ccc3c(c2)OCCO3)c(C(F)(F)F)oc2cc(O)cc(O)c12
CLASS_ASSIGNMENT: inactive

COMPOUND: COc1ccc(F)cc1S(=O)(=O)NCC(c1ccc2c(c1)OCO2)N1CCN(C)CC1 (stereo not drawn)
CLASS_ASSIGNMENT: inactive

COMPOUND: CCN(CC)C(=O)CC[C@H]1CC[C@]2(CCCN(Cc3ccc(Cl)cc3)C2)O1
CLASS_ASSIGNMENT: inactive

q: Please state the recorded outcome for this compound: CC(C)c1ccc(Nc2nnc(SCC(=O)c3nnc(-c4ccccc4)o3)s2)cc1
a: active

q: Please state the recorded outcome for this compound: C=CCN1C(=O)[C@@H](CC(=O)N2CCN(C(=O)c3ccco3)CC2)[C@]2(C(=O)OC)CCCCC=C12
a: inactive

q: Please state the recorded outcome for this compound: Cc1noc(C)c1NC(=O)Nc1ccc2c(c1)C(=O)N([C@H](C)CO)C[C@H](C)[C@H](CN(C)Cc1ccncc1)OCCCC[C@@H](C)O2
a: inactive

q: Please state the recorded outcome for this compound: Nn1c(SCC(=O)Nc2cccc3ccccc23)nnc1-c1cc(-c2ccc(F)cc2)n[nH]1
a: inactive

q: Please state the recorded outcome for this compound: COC(=O)c1cc2c(c3c4ccccc4n(S(=O)(=O)c4cccc(C)c4)c13)C(=O)N(Cc1ccccc1)C2
a: inactive

Source listed as PubChem BioAssay AID651821.
